// values below are reported Ki
- MEASUREMENT TARGET: human growth hormone secretagogue receptor (hGHS-R1a) (Homo sapiens, UniProt Q92847)
- Construct: purchased PerkinElmer BioSignal #RBHGHSM, lot#1887; host or cells: HEK-293, stably transfected (membranes)
- Sequence (Q92847 whole entry): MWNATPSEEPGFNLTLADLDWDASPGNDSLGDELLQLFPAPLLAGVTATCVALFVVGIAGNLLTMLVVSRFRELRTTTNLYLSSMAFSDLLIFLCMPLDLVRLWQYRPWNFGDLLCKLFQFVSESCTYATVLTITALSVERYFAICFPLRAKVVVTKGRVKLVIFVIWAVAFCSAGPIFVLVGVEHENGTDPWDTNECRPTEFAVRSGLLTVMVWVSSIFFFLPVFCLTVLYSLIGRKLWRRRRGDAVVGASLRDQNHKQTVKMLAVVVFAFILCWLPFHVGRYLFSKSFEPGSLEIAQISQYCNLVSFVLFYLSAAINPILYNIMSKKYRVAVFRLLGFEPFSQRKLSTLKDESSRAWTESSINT
- PROTOCOL: Competitive radioligand binding assay (ghrelin receptor), [125I]-ghrelin displacement on GHS-R/HEK 293 membranes
- ASSAY SETUP: binding activity at the human ghrelin receptor, [125I]-ghrelin competition, GHS-R/HEK 293 membranes; read-out: Ki

Data request: State, for human growth hormone secretagogue receptor (hGHS-R1a) (Homo sapiens, UniProt Q92847), measured Ki of the compound listed here: CC[C@H](C)[C@@H]1NCCOc2ccccc2CCCNC(=O)[C@@H](Cc2ccccc2)NC(=O)[C@@H](C)NC1=O
Data returned: 0.1 to 1 µM

Continuing:
Data request: State, for human growth hormone secretagogue receptor (hGHS-R1a) (Homo sapiens, UniProt Q92847), measured Ki of the compound listed here: CC(C)CC1NCc2ccc(cc2)CCNC(=O)C(Cc2ccccc2)NC(=O)C2(CCCC2)NC1=O (stereo not shown)
Data returned: > 10 µM

Data request: State, for human growth hormone secretagogue receptor (hGHS-R1a) (Homo sapiens, UniProt Q92847), measured Ki of the compound listed here: CC(C)C[C@@H]1NCCOc2ccccc2C=CCNC(=O)[C@H](C(C)C)NC(=O)C2(CCCC2)NC1=O (stereo in doubt)
Data returned: > 10 µM

* * *

- MEASUREMENT TARGET: human growth hormone secretagogue receptor (hGHS-R1a) (Homo sapiens)
- Construct: purchased PerkinElmer BioSignal #RBHGHSM, lot#1887; host or cells: HEK-293, stably transfected (membranes)
- PROTOCOL: Competitive radioligand binding assay (ghrelin receptor), [125I]-ghrelin displacement on GHS-R/HEK 293 membranes
- ASSAY SETUP: binding activity at the human ghrelin receptor, [125I]-ghrelin competition, GHS-R/HEK 293 membranes; read-out: Ki
// values below are reported Ki

Data request: State, for human growth hormone secretagogue receptor (hGHS-R1a) (Homo sapiens), measured Ki of the molecule listed here: CCCC1NCCOc2ccccc2CCCNC(=O)C(Cc2ccccc2)NC(=O)C(C)N(C)C1=O (stereo not shown)
Data returned: 0.01 to 0.1 µM

Data request: State, for human growth hormone secretagogue receptor (hGHS-R1a) (Homo sapiens), measured Ki of the molecule listed here: C[C@@H]1NCCOc2ccccc2CCCNC(=O)[C@H](Cc2ccccc2)NC(=O)C2(CCCC2)NC1=O
Data returned: 0.1 to 1 µM

Data request: State, for human growth hormone secretagogue receptor (hGHS-R1a) (Homo sapiens), measured Ki of the molecule listed here: CCC[C@@H]1NCCOc2ccccc2CCCNC(=O)[C@@H](Cc2ccccc2)NC(=O)CN(CC)C1=O
Data returned: 0.1 to 1 µM

Continuing:
Data request: State, for human growth hormone secretagogue receptor (hGHS-R1a) (Homo sapiens), measured Ki of the molecule listed here: CC(C)C[C@@H]1NCCOc2ccccc2CCCNC(=O)[C@@H](Cc2ccccc2)NC(=O)[C@@H](C)N(C)C1=O
Data returned: 0.01 to 0.1 µM

* * *

- MEASUREMENT TARGET: human growth hormone secretagogue receptor (hGHS-R1a) (Homo sapiens)
- Construct: purchased PerkinElmer BioSignal #RBHGHSM, lot#1887; host or cells: HEK-293, stably transfected (membranes)
- PROTOCOL: Competitive radioligand binding assay (ghrelin receptor), [125I]-ghrelin displacement on GHS-R/HEK 293 membranes
- ASSAY SETUP: binding activity at the human ghrelin receptor, [125I]-ghrelin competition, GHS-R/HEK 293 membranes; read-out: Ki
pKi: −log10 of the molar value.
// values below are reported pKi

Worked cases, answers included:
Data request: Given the compound O=C1NC2(CCCC2)C(=O)NC(Cc2ccccc2)C(=O)NCC=Cc2ccccc2OCCNC1Cc1ccc(F)cc1 (stereo not drawn) [compound 125] , write its reported pKi.
Data returned: < 5.00

Data request: Given the compound CC(C)[C@@H]1NCCOc2ccccc2CCCNC(=O)[C@@H](Cc2ccccc2)NC(=O)CN(C)C1=O [Compound 3] , write its reported pKi.
Data returned: 6.00 to 7.00

Data request: Given the compound CCCC[C@@H]1NCCOc2ccccc2CCCNC(=O)[C@H](Cc2ccccc2)NC(=O)C2(CCCC2)NC1=O [compound 101] , write its reported pKi.
Data returned: 6.00 to 7.00

Data request: Given the compound CCC(C)C1NCCOc2ccccc2CCCNC(=O)C(Cc2ccccc2)NC(=O)C(CC)N(C)C1=O (stereo not drawn) [compound 41] , write its reported pKi.
Data returned: 7.00 to 8.00

Data request: Given the compound CC(C)C[C@@H]1NCCOc2ccccc2C=CCNC(=O)[C@H](Cc2ccccc2Cl)NC(=O)C2(CCCC2)NC1=O (stereo in doubt) [compound 20] , write its reported pKi.
Data returned: 8.00 to 10.00

Data request: Given the compound CCC[C@@H]1NCCOc2ccccc2CCCNC(=O)[C@@H](C)NC(=O)CN(C)C1=O [compound 49] , write its reported pKi.
Data returned: < 5.00

Continuing:
Data request: Given the compound CCC[C@@H]1NCCOc2ccccc2CCCNC(=O)[C@@H](Cc2ccccc2)NC(=O)[C@@H](CC(C)C)NC1=O [compound 63] , write its reported pKi.
Data returned: < 5.00

Data request: Given the compound C[C@@H]1C(=O)N[C@H](Cc2ccccc2)C(=O)NCCCc2ccccc2OCCNC2(CC2)C(=O)N1C [compound 121] , write its reported pKi.
Data returned: < 5.00

* * *

// values below are reported Ki
- MEASUREMENT TARGET: human growth hormone secretagogue receptor (hGHS-R1a) (Homo sapiens)
- Construct: purchased PerkinElmer BioSignal #RBHGHSM, lot#1887; host or cells: HEK-293, stably transfected (membranes)
- PROTOCOL: Competitive radioligand binding assay (ghrelin receptor), [125I]-ghrelin displacement on GHS-R/HEK 293 membranes
- ASSAY SETUP: binding activity at the human ghrelin receptor, [125I]-ghrelin competition, GHS-R/HEK 293 membranes; read-out: Ki

Worked cases, answers included:
Data request: Given the compound CC(C)CC1NCCOc2ccccc2C=CCNC(=O)C(CC(C)C)NC(=O)C2(CCCC2)NC1=O (stereo not shown) [compound 47] , write its reported Ki.
Data returned: > 10 µM

Data request: Given the compound O=C1NC2(CCCC2)C(=O)N[C@@H](Cc2ccccc2)C(=O)NCC=Cc2ccccc2OCCN[C@H]1Cc1ccccc1Cl (stereo in doubt) [compound 122] , write its reported Ki.
Data returned: 0.1 to 1 µM

Data request: Given the compound CC(C)CC1NCCOc2ccccc2CCCNC(=O)C(Cc2ccccc2)NC(=O)C(C)NC1=O (stereo not shown) [compound 93] , write its reported Ki.
Data returned: 1 to 10 µM

Data request: Given the compound CC(C)[C@@H]1NCCOc2ccccc2CCCNC(=O)[C@H](Cc2ccccc2)NC(=O)C2(CCCC2)NC1=O [Compound 9] , write its reported Ki.
Data returned: 0.1 to 1 µM

Data request: Given the compound CCC[C@@H]1NCCOc2ccccc2CCCNC(=O)[C@@H](Cc2ccccc2)NC(=O)[C@H](CC(C)C)NC1=O [compound 62] , write its reported Ki.
Data returned: 1 to 10 µM

Data request: Given the compound CCC[C@@H]1NCCOc2ccccc2CCCNC(=O)[C@@H](Cc2ccccc2)NC(=O)[C@@H](C)NC1=O [compound 60] , write its reported Ki.
Data returned: 0.1 to 1 µM

Now for the compound whose Ki we want.
Data request: Given the compound COc1ccc(CC2NCCOc3ccccc3C=CCNC(=O)C(Cc3ccccc3)NC(=O)C3(CCCC3)NC2=O)cc1 (stereo not shown) [compound 127] , write its reported Ki.
Data returned: 0.1 to 1 µM
